# experimentalTarget: CDK19 (Homo sapiens)
# Sequence (Q9BWU1 whole entry, species assumed): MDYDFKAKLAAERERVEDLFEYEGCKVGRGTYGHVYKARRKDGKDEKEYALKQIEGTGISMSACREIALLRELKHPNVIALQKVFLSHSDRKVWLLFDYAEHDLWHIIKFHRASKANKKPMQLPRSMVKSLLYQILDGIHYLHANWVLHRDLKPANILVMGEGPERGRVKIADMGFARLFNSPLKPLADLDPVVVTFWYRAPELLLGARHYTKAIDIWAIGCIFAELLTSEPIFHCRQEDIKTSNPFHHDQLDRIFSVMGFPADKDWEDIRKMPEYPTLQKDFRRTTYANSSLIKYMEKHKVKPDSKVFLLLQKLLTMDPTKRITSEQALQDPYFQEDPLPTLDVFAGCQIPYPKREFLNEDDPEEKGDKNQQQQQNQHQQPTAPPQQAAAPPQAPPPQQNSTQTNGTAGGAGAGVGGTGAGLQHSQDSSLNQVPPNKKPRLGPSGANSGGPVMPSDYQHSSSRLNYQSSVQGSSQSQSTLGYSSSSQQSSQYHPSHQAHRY
# Sequence (P24863 whole entry partner, species assumed): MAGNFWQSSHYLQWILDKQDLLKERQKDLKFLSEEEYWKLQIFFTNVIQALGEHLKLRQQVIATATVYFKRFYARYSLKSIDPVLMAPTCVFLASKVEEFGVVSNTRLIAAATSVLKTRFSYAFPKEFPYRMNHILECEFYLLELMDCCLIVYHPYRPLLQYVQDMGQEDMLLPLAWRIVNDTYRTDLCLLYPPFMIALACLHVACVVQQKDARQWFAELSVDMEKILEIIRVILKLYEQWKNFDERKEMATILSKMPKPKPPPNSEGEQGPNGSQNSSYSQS
# assayName: In vitro kinase assay ([γ-33P]-ATP)
# Format: biochemical
# measurementSetup: ATP at apparent Km of the kinase
observable: IC50

smiles	IC50
O=C(CNc1ccc(-c2cnc3cnccn23)cc1)Nc1cc(C(F)(F)F)c(Cl)cn1	< 500 nM

## Input What does the data say about its IC50? Entry: Cc1ccc(NC(=O)c2ccc(Nc3cnc4cnccn34)cc2)cc1C(F)(F)F
## Output 500 to 5000 nM

## Input Quick check: IC50 of O=C(Nc1cc(C(F)(F)F)c(Cl)cn1)C1(Oc2ccc(-c3cnc4cnccn34)cn2)CC1 ?
## Output > 5000 nM

## Input Recorded IC50 for Cn1nc(NC(=O)COc2ccc(-c3cnn4cccnc34)cc2)cc1C(F)(F)F , please?
## Output < 500 nM

## Input I am curious: what IC50 value has been reported for Cn1nc(NC(=O)COc2ccc(-c3cnc4cnccn34)cn2)cc1C(F)(F)F ?
## Output < 500 nM

## Input Report IC50 for Cn1nc(NC(=O)COc2ccc(-c3cnc4ccccn34)cn2)cc1C(F)(F)F please.
## Output < 500 nM

## Input Find the recorded IC50 belonging to Cc1ccc(NC(=O)CNc2ccc(-c3cnc4cnccn34)cc2)cc1C(F)(F)F and report it.
## Output < 500 nM

## Input Recorded IC50 for Cn1nc(NC(=O)CNc2ccc(-c3cnc4cnccn34)c(F)c2)cc1C(F)(F)F , please?
## Output < 500 nM
